Cited source: a collection of fitness landscapes (doi:10.1016/j.celrep.2020.107928)

The reader will find reported one-hybrid fitness for binding NBS DNA values listed item by item below.
B1: Caulobacter ParB omega fusion; a variant is named by its letters at X, in order, B8GW30 (parent)
chain: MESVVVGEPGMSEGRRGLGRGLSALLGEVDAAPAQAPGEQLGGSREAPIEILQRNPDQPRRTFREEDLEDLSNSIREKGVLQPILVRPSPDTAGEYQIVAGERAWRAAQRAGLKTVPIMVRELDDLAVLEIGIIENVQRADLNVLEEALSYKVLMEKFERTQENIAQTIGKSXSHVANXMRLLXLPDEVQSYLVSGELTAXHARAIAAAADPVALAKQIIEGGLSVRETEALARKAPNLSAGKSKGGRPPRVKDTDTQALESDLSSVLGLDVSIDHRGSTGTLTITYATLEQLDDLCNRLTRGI

Variants of: B1
Experiment: one-hybrid fitness for binding NBS DNA (the Noc-binding site; scaled: cognate 1, non-cognate 0); higher = stronger binding
Details: with NBS DNA site
Whole data set: some 81,000 sequences, median “one-hybrid fitness for binding NBS DNA” near -0.1, cut for the highest 2% near 0.36. Many of the other results were omitted from the sample, so the highest values are more common in it than they were.
Form: value (number only, do not type unit).

Observe how each entry below is paired with its result.
RRRE: 0.219
RRNT: 0.785
RRDT: 0.755
RRYH: 0.436
RACT: 0.334

### Prompt Looking for the measured one-hybrid fitness for binding NBS DNA of RRCT , can you help?
### Response 0.77

### Prompt Entry to check: RSYS
### Response 0.409

### Prompt Entry to check: RLYS
### Response 0.34
